Tested on: rabbit skeletal myofibrils (fast skeletal myofibrils)
Assay: Activation of fast skeletal myofibrils (PUMA assay, PK/LDH-coupled ATPase at pCa25)
Format: biochemical
Conditions: AC1.4 determined according to the procedure of Example 39; reported as class symbols
MEASURED_METRIC: Mean AC1.4

Study these solved cases before continuing.
# SAMPLE_SMILES, Mean AC1.4
data = [
    ("CC(C)(CNc1ccc(-c2cccc(C(=O)N3CCNCC3)c2)nn1)c1ccc(F)cc1", "B (B=1-10 uM)"),
    ("CCNc1n[nH]c2ccc(-c3ccc(NCC(C)(C)c4ccc(F)cc4)nn3)cc12", "A (A=<1 uM)"),
    ("CC(C)(CNc1ccc(-c2ccccc2)nn1)c1ccc(F)cc1", "A (A=<1 uM)"),
    ("Cc1ccc(C(C)(C)CNc2ccc(-c3ccc4[nH]nc(N)c4c3)nn2)cc1", "A (A=<1 uM)"),
    ("CCc1ccc(NCC(C)(C)c2ccc(F)cc2)nn1", "C (C=10-20 uM)"),
    ("Fc1cccnc1C1(CNc2ccc(-c3ccc4[nH]ncc4c3)nn2)CCC1", "A (A=<1 uM)"),
    ("Cc1ccccc1C(C)(C)CNc1ccc(-c2ccc3[nH]nc(N)c3c2)nn1", "A (A=<1 uM)"),
    ("CC(C)(CNc1ccc(-c2cccc(C(=O)c3ccccc3)c2)nn1)c1ccc(F)cc1", "D (D=>20 uM)"),
]

**Q:** Lab note: rabbit skeletal myofibrils (fast skeletal myofibrils) assay, enter Mean AC1.4 for `O=c1ncc(-c2ccc(NCC3(c4ccc(F)cc4)CCC3)nn2)c[nH]1` here
**A:** B (B=1-10 uM)

**Q:** Lab note: rabbit skeletal myofibrils (fast skeletal myofibrils) assay, enter Mean AC1.4 for `CC(C)(CNc1ccc(-c2cccc(C(N)=O)c2)nn1)c1ccccc1F` here
**A:** A (A=<1 uM)

###

Test system: rabbit skeletal myofibrils (fast skeletal myofibrils)
Experiment: Activation of fast skeletal myofibrils (PUMA assay, PK/LDH-coupled ATPase at pCa25)
Assay type: biochemical
Settings: median AC1.4 reported as class; procedure of Example 39
Text: Preparation of Fast Skeletal Myofibrils. […] Fast fiber activators were identified by measuring the enzymatic activity of muscle myofibril preparations using the proprietary PUMA™ (see, e.g., U.S. Pat. Nos. 6,410,254, 6,743,599, 7,202,051, and 7,378,254) assay system. […] This assay regenerates myosin-produced ADP into ATP by oxidizing NADH, producing an absorbance change at 340 nm. […]
MEASURED_METRIC: Mean AC1.4

Study these solved cases before continuing.
# MOLECULE, MEASURED_METRIC, OBS_VALUE
data = [
    ("COc1ncc(-c2ccc(NCC3(c4ncccc4F)CCC3)nn2)cc1C#N", "Mean AC1.4", "D (D=>20 uM)"),
    ("CC(C)[C@H](N)C(=O)N[C@H](C(=O)OCC(=O)NCc1cnc(-c2ccc(NCC3(c4ncccc4F)CCC3)nn2)s1)C(C)C", "Mean AC1.4", "A (A=<1 uM)"),
    ("O=C(NC1CCS(=O)(=O)C1)c1cccc(-c2ccc(NC[C@]3(c4ncccc4F)C[C@H](F)C3)nn2)c1 (some centres unmarked)", "Mean AC1.4", "B (B=1-10 uM)"),
    ("NC(=O)N1CCc2nc(-c3ccc(NCC4(c5ncccc5F)CCC4)nn3)sc2C1", "Mean AC1.4", "D (D=>20 uM)"),
    ("CNc1ccc(-c2ccc(NC[C@]3(c4ncccc4F)C[C@H](F)C3)nn2)cn1", "Mean AC1.4", "B (B=1-10 uM)"),
]

**Q:** Answer with reported Mean AC1.4 of `O=C(NC1CCC1)c1ccc(F)c(-c2ccc(NC[C@]3(c4ncccc4F)C[C@H](F)C3)nn2)c1`
**A:** A (A=<1 uM)

**Q:** Answer with reported Mean AC1.4 of `O=C(NC1CC(F)(F)C1)c1ccc(F)c(-c2ccc(NC[C@]3(c4ncccc4F)C[C@H](F)C3)nn2)c1`
**A:** A (A=<1 uM)

**Q:** Answer with reported Mean AC1.4 of `CC(=O)NCc1ncc(-c2ccc(NCC3(c4ncccc4F)CCC3)nn2)s1`
**A:** B (B=1-10 uM)

**Q:** Answer with reported Mean AC1.4 of `NC(=O)c1cc(-c2ccc(NCC3(c4ncccc4F)CCC3)nn2)c[nH]c1=O`
**A:** C (C=10-20 uM)

**Q:** Answer with reported Mean AC1.4 of `CNC(=O)c1ccc(F)c(-c2ccc(NCC3(c4ncccc4F)CCC3)nn2)c1`
**A:** A (A=<1 uM)

**Q:** Answer with reported Mean AC1.4 of `O=C(N[C@@H]1CCNC1=O)c1ccc(NCC2(c3ncccc3F)CCC2)nn1`
**A:** D (D=>20 uM)

**Q:** Answer with reported Mean AC1.4 of `NC(=O)c1csc(NC(=O)c2ccc(NCC3(c4ncccc4F)CCC3)nn2)n1`
**A:** A (A=<1 uM)

**Q:** Answer with reported Mean AC1.4 of `CC(C)(CNc1ccc(-c2cn3c(C(N)=O)csc3n2)nn1)c1ncccc1Cl`
**A:** A (A=<1 uM)

**Q:** Answer with reported Mean AC1.4 of `C[C@H](O)C(=O)NCc1cnc(-c2ccc(NCC3(c4ncccc4F)CCC3)nn2)s1`
**A:** A (A=<1 uM)

**Q:** Answer with reported Mean AC1.4 of `CNC(=O)Cc1cnc(-c2ccc(NCC3(c4ncccc4F)CCC3)nn2)s1`
**A:** B (B=1-10 uM)

**Q:** Answer with reported Mean AC1.4 of `O=C(Nc1nncs1)c1ccc(NCC2(c3ncccc3F)CCC2)nn1`
**A:** B (B=1-10 uM)

**Q:** Answer with reported Mean AC1.4 of `O=C(Nc1ncc[nH]1)c1ccc(NCC2(c3ncccc3F)CCC2)nn1`
**A:** C (C=10-20 uM)

**Q:** Answer with reported Mean AC1.4 of O=C(NC1CCCNC1=O)c1ccc(NCC2(c3ncccc3F)CCC2)nn1 (centres unmarked)
**A:** D (D=>20 uM)

**Q:** Answer with reported Mean AC1.4 of `O=C(NCc1nccs1)c1ccc(NCC2(c3ncccc3F)CCC2)nn1`
**A:** D (D=>20 uM)

**Q:** Answer with reported Mean AC1.4 of `Cc1cc(NCC2(c3ncccc3F)CCC2)nnc1-c1cccc(C(N)=O)c1`
**A:** C (C=10-20 uM)

###

Test system: rabbit skeletal myofibrils (fast skeletal myofibrils)
Test: Activation of fast skeletal myofibrils (PUMA assay, PK/LDH-coupled ATPase at pCa25)
Assay type: biochemical
Details: median AC1.4 class, procedure of Example 39
MEASURED_METRIC: Mean AC1.4

Study these solved cases before continuing.
# SAMPLE_SMILES, ASSAY_SYSTEM, Mean AC1.4
records = [
    ("CC(=O)c1ccc(NCC2(c3ncccc3F)CCC2)nn1", "rabbit skeletal myofibrils (fast skeletal myofibrils)", "D (D=>20 uM)"),
    ("NC(=O)CNc1ncc(-c2ccc(NCC3(c4ncccc4F)CCC3)nn2)cn1", "rabbit skeletal myofibrils (fast skeletal myofibrils)", "C (C=10-20 uM)"),
    ("CCOC(=O)/C=C/c1ccc(NCC2(c3ncccc3F)CCC2)nn1", "rabbit skeletal myofibrils (fast skeletal myofibrils)", "D (D=>20 uM)"),
    ("NC(=O)c1ccc(F)c(-c2ccc(NC3(c4ncccc4O)CCC3)nn2)c1", "rabbit skeletal myofibrils (fast skeletal myofibrils)", "D (D=>20 uM)"),
    ("N#Cc1cccc(-c2ccc(NCC3(c4ccccn4)CCC3)nn2)c1", "rabbit skeletal myofibrils (fast skeletal myofibrils)", "B (B=1-10 uM)"),
]

**Q:** Answer with reported Mean AC1.4 of `CC(C)OC(=O)c1ccc(F)c(-c2ccc(NC[C@]3(c4ncccc4F)C[C@H](F)C3)nn2)c1`
**A:** B (B=1-10 uM)

**Q:** Answer with reported Mean AC1.4 of `O=C(NCc1cnc(-c2ccc(NCC3(c4ncccc4F)CCC3)nn2)s1)c1ncn[nH]1`
**A:** A (A=<1 uM)

**Q:** Answer with reported Mean AC1.4 of `O=C(NCc1cnc(-c2ccc(NCC3(c4ncccc4F)CCC3)nn2)s1)c1ccn[nH]1`
**A:** A (A=<1 uM)

**Q:** Answer with reported Mean AC1.4 of `CC(C)(Nc1ccc(-c2cc(C(N)=O)ccc2F)nn1)c1ccc(F)cc1`
**A:** A (A=<1 uM)

**Q:** Answer with reported Mean AC1.4 of `NCc1ccccc1-c1ccc(NCC2(c3ncccc3F)CCC2)nn1`
**A:** D (D=>20 uM)

###

Test system: rabbit skeletal myofibrils (fast skeletal myofibrils)
Assay: Activation of fast skeletal myofibrils (PUMA assay, PK/LDH-coupled ATPase at pCa25)
Format: biochemical
Details: median AC1.4 class, procedure of Example 39
MEASURED_METRIC: Mean AC1.4

# COMPOUND, OBS_VALUE
records = [
    ("NC(=O)C1CN=C(c2ccc(NCC3(c4ncccc4F)CCC3)nn2)N1 (centres unmarked)", "D (D=>20 uM)"),
    ("Cc1ncc(-c2ccc(NCC3(c4ncccc4F)CCC3)nn2)cn1", "D (D=>20 uM)"),
    ("NC(=O)c1cnc(-c2ccc(NCC3(c4ccccn4)CCC3)nn2)s1", "A (A=<1 uM)"),
    ("Nc1ncc(-c2ccc(NCC3(c4ncccc4F)CCC3)nn2)cc1F", "A (A=<1 uM)"),
]
